# credit: paper PMC7699745

List of ED50 values.
Test system: 6 Hz (32 mA) seizures, mice
Test: Psychomotor 6 Hz (32 mA) seizure model
Assay type: in vivo
Settings: Mus musculus, ip, at TPE (0.5 h; LTG 1.0 h), 95% confidence intervals in parentheses
Respond numerically; units are mg/kg and should not be typed.

O=C(Nc1ccc(F)cc1)C(c1ccccc1)N1C(=O)CCC1=O (stereo not shown) = 57.6
O=C(NCCc1cccc(C(F)(F)F)c1)C(c1ccccc1)N1C(=O)CCC1=O (stereo not shown) = 49.3
O=C(NCc1cccc(Cl)c1)C(c1ccccc1)N1C(=O)CCC1=O (stereo not shown) = 89.9
O=C(NCCc1ccc(Cl)cc1)C(c1ccccc1)N1C(=O)CCC1=O (stereo not shown) = 88.1
O=C(NCCc1ccccc1)C(c1ccccc1)N1C(=O)CCC1=O (stereo not shown) = 88.9

[ask] Specify measured ED50 for O=C(NCc1cccc(C(F)(F)F)c1)C(c1ccccc1)N1C(=O)CCC1=O (stereo not shown) .
[reply] 57.6

[ask] Specify measured ED50 for O=C(NCc1ccccc1)C(c1ccccc1)N1C(=O)CCC1=O (stereo not shown) .
[reply] 62.9

[ask] Specify measured ED50 for O=C(Nc1ccccc1)C(c1ccccc1)N1C(=O)CCC1=O (stereo not shown) .
[reply] 92.5

[ask] Specify measured ED50 for O=C(NCCCc1ccccc1)C(c1ccccc1)N1C(=O)CCC1=O (stereo not shown) .
[reply] 104

[ask] Specify measured ED50 for O=C(NCCc1cccc(Cl)c1)C(c1ccccc1)N1C(=O)CCC1=O (stereo not shown) .
[reply] 36.3

[ask] Specify measured ED50 for O=C(NCc1cccc(OC(F)(F)F)c1)C(c1ccccc1)N1C(=O)CCC1=O (stereo not shown) .
[reply] 43.8

[ask] Specify measured ED50 for O=C(NCCc1cccc(OC(F)(F)F)c1)C(c1ccccc1)N1C(=O)CCC1=O (stereo not shown) .
[reply] 39.5

[ask] Specify measured ED50 for Nc1nnc(-c2cccc(Cl)c2Cl)c(N)n1 [LTG, lamotrigine, reference compound] .
[reply] 6.4

====

Molecular target: Cav1.2 channel (Rattus norvegicus, UniProt P22002)
Construct: tissue Eurofins (Poitiers, France), contract assay; host or cells: rat cerebral cortex (own knowledge of the vendor's assay)
Sequence (P22002 whole entry): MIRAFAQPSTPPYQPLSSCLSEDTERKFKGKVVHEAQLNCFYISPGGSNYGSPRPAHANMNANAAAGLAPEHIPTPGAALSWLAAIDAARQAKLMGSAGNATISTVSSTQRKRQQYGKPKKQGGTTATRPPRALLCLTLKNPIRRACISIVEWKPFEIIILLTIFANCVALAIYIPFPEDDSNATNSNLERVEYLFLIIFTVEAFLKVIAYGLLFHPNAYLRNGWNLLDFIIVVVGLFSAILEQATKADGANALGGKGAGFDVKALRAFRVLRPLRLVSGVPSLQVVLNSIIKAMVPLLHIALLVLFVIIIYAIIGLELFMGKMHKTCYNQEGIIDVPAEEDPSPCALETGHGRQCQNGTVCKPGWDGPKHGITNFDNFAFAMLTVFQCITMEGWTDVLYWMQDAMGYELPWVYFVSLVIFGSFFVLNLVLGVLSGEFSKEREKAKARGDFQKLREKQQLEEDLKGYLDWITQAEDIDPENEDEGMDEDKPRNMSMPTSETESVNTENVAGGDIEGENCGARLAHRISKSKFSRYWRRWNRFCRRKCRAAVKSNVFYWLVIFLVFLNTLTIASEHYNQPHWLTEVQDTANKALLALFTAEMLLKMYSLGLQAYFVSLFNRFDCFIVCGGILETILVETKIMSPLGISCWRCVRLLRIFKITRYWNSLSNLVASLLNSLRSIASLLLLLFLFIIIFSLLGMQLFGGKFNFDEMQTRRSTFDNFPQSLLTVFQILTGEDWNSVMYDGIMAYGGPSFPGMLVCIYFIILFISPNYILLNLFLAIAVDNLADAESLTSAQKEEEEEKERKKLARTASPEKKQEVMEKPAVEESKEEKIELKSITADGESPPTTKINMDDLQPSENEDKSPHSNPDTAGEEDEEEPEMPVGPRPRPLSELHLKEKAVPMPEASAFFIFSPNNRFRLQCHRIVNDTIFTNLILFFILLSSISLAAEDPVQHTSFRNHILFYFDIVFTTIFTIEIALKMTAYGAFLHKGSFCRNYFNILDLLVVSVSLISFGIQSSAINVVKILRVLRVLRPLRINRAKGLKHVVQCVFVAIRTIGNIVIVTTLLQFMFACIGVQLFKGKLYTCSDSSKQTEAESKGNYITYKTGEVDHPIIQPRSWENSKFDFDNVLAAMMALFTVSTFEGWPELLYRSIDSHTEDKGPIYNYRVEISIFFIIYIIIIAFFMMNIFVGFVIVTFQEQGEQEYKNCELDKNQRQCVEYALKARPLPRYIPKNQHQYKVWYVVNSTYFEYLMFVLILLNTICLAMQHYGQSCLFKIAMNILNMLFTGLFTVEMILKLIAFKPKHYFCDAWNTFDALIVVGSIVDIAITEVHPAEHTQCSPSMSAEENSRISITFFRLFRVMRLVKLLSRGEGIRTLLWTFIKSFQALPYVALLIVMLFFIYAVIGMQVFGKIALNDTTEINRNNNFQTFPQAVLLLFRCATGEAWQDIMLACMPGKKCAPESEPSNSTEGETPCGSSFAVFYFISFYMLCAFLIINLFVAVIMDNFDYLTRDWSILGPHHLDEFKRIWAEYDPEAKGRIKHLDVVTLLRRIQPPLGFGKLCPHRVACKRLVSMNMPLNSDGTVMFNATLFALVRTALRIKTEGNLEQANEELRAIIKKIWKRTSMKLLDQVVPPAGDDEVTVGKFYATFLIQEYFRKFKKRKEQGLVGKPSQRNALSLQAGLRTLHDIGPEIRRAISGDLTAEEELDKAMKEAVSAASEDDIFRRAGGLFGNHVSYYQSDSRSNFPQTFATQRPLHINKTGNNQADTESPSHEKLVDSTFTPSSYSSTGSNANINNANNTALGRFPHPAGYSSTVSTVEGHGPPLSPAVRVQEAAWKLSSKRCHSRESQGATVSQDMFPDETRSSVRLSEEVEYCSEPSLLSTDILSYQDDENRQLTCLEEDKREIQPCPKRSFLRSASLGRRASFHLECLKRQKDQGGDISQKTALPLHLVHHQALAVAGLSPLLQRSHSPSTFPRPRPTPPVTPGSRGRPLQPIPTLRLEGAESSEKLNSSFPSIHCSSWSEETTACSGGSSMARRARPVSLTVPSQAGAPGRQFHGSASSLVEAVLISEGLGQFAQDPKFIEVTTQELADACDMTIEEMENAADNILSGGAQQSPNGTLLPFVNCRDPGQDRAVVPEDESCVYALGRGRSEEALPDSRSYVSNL
Sequence (P54287 whole entry partner): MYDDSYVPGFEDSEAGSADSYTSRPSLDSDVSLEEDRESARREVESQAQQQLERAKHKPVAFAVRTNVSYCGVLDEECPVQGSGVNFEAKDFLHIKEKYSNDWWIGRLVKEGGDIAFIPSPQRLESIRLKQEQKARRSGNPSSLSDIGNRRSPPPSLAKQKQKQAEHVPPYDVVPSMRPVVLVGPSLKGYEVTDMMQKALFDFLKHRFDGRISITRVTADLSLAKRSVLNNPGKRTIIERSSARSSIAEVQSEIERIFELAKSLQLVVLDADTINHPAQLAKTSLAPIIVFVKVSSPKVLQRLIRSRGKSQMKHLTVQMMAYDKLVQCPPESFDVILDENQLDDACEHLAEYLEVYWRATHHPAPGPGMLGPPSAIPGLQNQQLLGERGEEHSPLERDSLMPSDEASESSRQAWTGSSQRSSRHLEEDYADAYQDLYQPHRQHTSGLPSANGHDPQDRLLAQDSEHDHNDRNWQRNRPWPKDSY
Sequence (P54290 25-944 partner limits assumed): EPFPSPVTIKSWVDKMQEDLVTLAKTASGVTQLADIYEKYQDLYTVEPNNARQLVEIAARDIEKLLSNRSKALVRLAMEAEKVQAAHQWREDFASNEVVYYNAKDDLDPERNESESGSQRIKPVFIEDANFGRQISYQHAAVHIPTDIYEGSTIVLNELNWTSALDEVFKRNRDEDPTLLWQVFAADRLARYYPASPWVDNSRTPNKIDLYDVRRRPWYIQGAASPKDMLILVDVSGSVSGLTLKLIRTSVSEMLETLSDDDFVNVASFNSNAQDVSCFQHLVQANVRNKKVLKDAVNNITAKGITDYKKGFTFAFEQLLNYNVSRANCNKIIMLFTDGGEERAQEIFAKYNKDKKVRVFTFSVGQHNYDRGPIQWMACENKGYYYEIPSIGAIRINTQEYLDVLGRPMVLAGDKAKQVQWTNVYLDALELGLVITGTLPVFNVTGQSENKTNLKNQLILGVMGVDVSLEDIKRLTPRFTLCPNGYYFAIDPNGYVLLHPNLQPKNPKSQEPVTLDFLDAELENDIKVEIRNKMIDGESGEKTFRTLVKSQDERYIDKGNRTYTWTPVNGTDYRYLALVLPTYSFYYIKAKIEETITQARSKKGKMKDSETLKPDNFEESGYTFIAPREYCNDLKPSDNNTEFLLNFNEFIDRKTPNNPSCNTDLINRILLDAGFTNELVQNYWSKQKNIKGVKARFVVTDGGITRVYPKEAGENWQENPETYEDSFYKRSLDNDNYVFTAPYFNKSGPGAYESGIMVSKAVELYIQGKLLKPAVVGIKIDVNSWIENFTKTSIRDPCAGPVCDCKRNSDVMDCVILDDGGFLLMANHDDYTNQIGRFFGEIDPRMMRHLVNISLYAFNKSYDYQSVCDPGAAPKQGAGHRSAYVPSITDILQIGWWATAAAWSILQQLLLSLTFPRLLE
Sequence (P54290 945-1091 partner limits assumed): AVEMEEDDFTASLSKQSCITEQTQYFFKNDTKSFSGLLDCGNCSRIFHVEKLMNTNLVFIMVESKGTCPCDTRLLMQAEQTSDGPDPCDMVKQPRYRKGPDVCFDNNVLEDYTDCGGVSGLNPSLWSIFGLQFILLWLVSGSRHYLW
Assay: Radioligand binding, Cav1.2 channel
Conditions: concentration of 10 µM
Measured Attribute: binding to voltage-gated calcium channels Cav1.2

O=C(NCCc1cccc(Cl)c1)C(c1ccccc1)N1C(=O)CCC1=O (stereo not shown) [Compound 27] = moderate binding
O=C(NCc1cccc(OC(F)(F)F)c1)C(c1ccccc1)N1C(=O)CCC1=O (stereo not shown) [Compound 24] = moderate binding
O=C(NCCc1cccc(OC(F)(F)F)c1)C(c1ccccc1)N1C(=O)CCC1=O (stereo not shown) [Compound 30] = moderate binding
O=C(NCCc1cccc(C(F)(F)F)c1)C(c1ccccc1)N1C(=O)CCC1=O (stereo not shown) [Compound 29] = moderate binding

====

List of ED50 values.
System: MES seizures, mice
Assay: Maximal electroshock (MES) seizure test
Format: in vivo
Settings: Mus musculus, ip, at TPE (0.5 h; LTG 1.0 h), 95% confidence intervals in parentheses
Respond numerically; units are mg/kg and should not be typed.

Please review the entries below; each comes with its answer.
O=C(NCCc1ccccc1)C(c1ccccc1)N1C(=O)CCC1=O (stereo not drawn) = 87.9
O=C(Nc1ccc(Cl)cc1)C(c1ccccc1)N1C(=O)CCC1=O (stereo not drawn) = 106
O=C(NCCc1cccc(C(F)(F)F)c1)C(c1ccccc1)N1C(=O)CCC1=O (stereo not drawn) = 55.4
O=C(NCCc1cccc(OC(F)(F)F)c1)C(c1ccccc1)N1C(=O)CCC1=O (stereo not drawn) = 45.6

[ask] Provide ED50, recorded with MES seizures, mice, of O=C(NCCc1ccc(Cl)cc1)C(c1ccccc1)N1C(=O)CCC1=O (stereo not drawn)
[reply] 117

[ask] Provide ED50, recorded with MES seizures, mice, of O=C(NCc1cccc(Cl)c1)C(c1ccccc1)N1C(=O)CCC1=O (stereo not drawn)
[reply] 90.7

[ask] Provide ED50, recorded with MES seizures, mice, of O=C(Nc1ccc(F)cc1)C(c1ccccc1)N1C(=O)CCC1=O (stereo not drawn)
[reply] 118

[ask] Provide ED50, recorded with MES seizures, mice, of O=C(NCc1ccccc1C(F)(F)F)C(c1ccccc1)N1C(=O)CCC1=O (stereo not drawn)
[reply] 49.6

====

List of inhibition values.
Molecular target: Cav1.2 channel (Rattus norvegicus)
Construct: tissue Eurofins (Poitiers, France), contract assay; host or cells: rat cerebral cortex (own knowledge of the vendor's assay)
Assay: Radioligand binding, Cav1.2 channel
Set-up: dose or concentration left out as unconfirmed
Details: rat cerebral cortex; read-out: % Inhibition of Control Specific Binding, Cav1.2 Channel (Antagonist Radioligand)
Respond numerically; units are % and should not be typed.

Please review the entries below; each comes with its answer.
O=C(NCCc1cccc(Cl)c1)C(c1ccccc1)N1C(=O)CCC1=O (stereo not drawn) = 38.3
O=C(NCCc1cccc(OC(F)(F)F)c1)C(c1ccccc1)N1C(=O)CCC1=O (stereo not drawn) = 47.6
O=C(Nc1ccccc1F)C(c1ccccc1)N1C(=O)CCC1=O (stereo not drawn) = 5
O=C(Nc1ccccc1)C(c1ccccc1)N1C(=O)CCC1=O (stereo not drawn) = 9
O=C(NCCc1ccccc1)C(c1ccccc1)N1C(=O)CCC1=O (stereo not drawn) = 19

Then this molecule:
[ask] Provide inhibition, recorded with Cav1.2 channel (Rattus norvegicus), of O=C(NCCc1cccc(C(F)(F)F)c1)C(c1ccccc1)N1C(=O)CCC1=O (stereo not drawn)
[reply] 44.2
